Test: A549 lung cancer cell viability effects, profiling panel, resazurin fluorescence, 24 h, PK04 Diversity Set (AID 1171); also: test concentration not given here
Conditions: higher = more signal, called active from +8 up or from −8 down
# cutoff 0.4 applies to z-score; >= gives yes (1), < gives no (0)

For orientation, consider the following solved cases.
compound: C=CC[C@@]1(C(=O)O)N=C(c2ccc(OCCCO)cc2)O[C@@H]1c1ccccc1CN=[N+]=[N-]
assigned_category: yes (1)
--
compound: CCCCC(O)C1C=CC2C(=O)NC(=O)C2N1Nc1ccccn1 (centres undefined)
assigned_category: no (0)
--
compound: C#CCN([C@H](/C=C/C1CC1)[C@@H](O)Cc1ccccc1)[C@@H](Cc1ccccc1)C(=O)OC
assigned_category: yes (1)

Input: In plain terms: is recorded z-score at least 0.4 for "C=C(/C(=C/C[C@@H](OC(C)=O)c1ccccc1OCCO)c1cc(C(=O)OC)ccc1OC)C(C)C" ?
Output: yes (1)

Input: Hello, I need to know if COc1cc2c(cc1O)C(C1CC1)N(Cc1ccc([N+](=O)[O-])o1)CC2 (centres undefined) has measured z-score not below 0.4. Thanks!
Output: yes (1)

Input: Record CC[C@H](C)C(=O)O[C@H]1CC[C@]2(C)C3=C(CCC2C1(C)C)[C@]1(C)CC[C@H]([C@H](C)CCCC(C)C)[C@@]1(C)CC3 (some centres undefined) ; criterion: z-score no lower than 0.4. Met?
Output: yes (1)

Input: Form field: z-score at least 0.4? Entry: "COC(=O)[C@@]1(Cc2ccc(F)cc2)[C@H]2c3cc(C(=O)N4CCCC4)n(CCO)c3C[C@H]2CN1C(=O)c1ccccc1"
Output: no (0)

Input: Could you verify whether the entry "C=CCNC(=O)[C@H]1[C@@H]2C(=O)O[C@@H](c3ccccc3)[C@@H](c3ccccc3)N2[C@@H](c2ccc(O)cc2)[C@]12C(=O)Nc1ccc(C#CC3=CCCCC3)cc12" shows z-score of no less than 0.4?
Output: no (0)

Input: Threshold query (z-score >= 0.4) on "COCCOC(=O)N1C(=O)[C@@]2(c3cc(C#Cc4ccc(OC)cc4)ccc31)[C@H](C(=O)Nc1nc3ccccc3s1)[C@H]1C(=O)O[C@H](c3ccccc3)[C@H](c3ccccc3)N1[C@@H]2c1ccccc1OCCO"
Output: no (0)

Input: Textbook exercise: given the entry "COc1ccc(CCNC(=O)[C@@]2(Sc3ccc(C)cc3)CC(=O)N(C(C)C)[C@@H]2c2ccc(CO)cc2)cc1" , state whether its z-score is greater than or equal to 0.4.
Output: no (0)

Input: Quick check: does "COCCOC(=O)N1C(=O)[C@@]2(c3cc(C#CCC(C(=O)OC)C(=O)OC)ccc31)[C@H](C(=O)N1CCc3cc(OC)c(OC)cc3C1)[C@H]1C(=O)O[C@H](c3ccccc3)[C@H](c3ccccc3)N1[C@@H]2c1ccc(O)cc1" have z-score greater than or equal to 0.4?
Output: no (0)

Input: Is the recorded value of z-score equal to or greater than 0.4 for this compound? CC(C)C[C@@H]1NC(=O)[C@@]23C(=O)N[C@@H](Cc4ccccc4)C2[C@H](C)[C@@]2(C)O[C@H]2C3/C=C/C/C=C\CNC(=O)[C@@H](CC(C)C)NC1=O (some centres undefined)
Output: yes (1)

Input: # bool: z-score of "COCCOC(=O)N1C(=O)[C@@]2(c3cc(C#CCC(C(=O)OC)C(=O)OC)ccc31)[C@H](C(=O)N1CCCCCCC1)[C@H]1C(=O)O[C@H](c3ccccc3)[C@H](c3ccccc3)N1[C@@H]2c1ccccc1OCCO" >= 0.4
Output: yes (1)
